# Test system: DeltatarO mutant
# assay explanation: S. aureus survival, RN4220 and DeltatarO strains – OD600, teichoic acid synthesis inhibitors, primary screen (AID 463173)
# test parameters: S. aureus RN4220 wild type/DeltatarO growth, OD600, 18 h, screened at 18.75 µg/mL (by protocol)
Among all 52,000 compounds or so, about 4,300 (8.3%) were called active. No stated cut-off is given here; in the data, active means survival mostly below about 52% (no sharp cut-off); inactive means mostly above about 56%. This is one part of a sample in which actives are shown more often than they occur.
Classes used: 1 = active, 0 = inactive

{"compound": "O=C(Cn1c(-c2cccs2)cc2cc(Cl)ccc21)N1CCN(c2ccccc2)CC1", "target system": "DeltatarO mutant", "category label": 0}
{"compound": "CCOc1ccc(-n2nc(CO)c(C(=O)NCc3ccccn3)n2)cc1", "target system": "DeltatarO mutant", "category label": 0}
{"compound": "CC(=O)Nc1ccc(S(=O)(=O)NC2=NCN(CCO)CN2)cc1", "target system": "DeltatarO mutant", "category label": 0}
{"compound": "CCOc1ccc2nc(NC(=O)c3cc(=O)c4cc(C)cc(C)c4o3)sc2c1", "target system": "DeltatarO mutant", "category label": 0}
{"compound": "CCc1cccc(CC)c1N(COC)C(=O)Cn1c(C)nc2ccccc21", "target system": "DeltatarO mutant", "category label": 0}
{"compound": "COc1cccc(CNC(=O)c2nn(-c3ccccc3Cl)nc2CO)c1", "target system": "DeltatarO mutant", "category label": 0}
{"compound": "COc1ccc2nc(NC(=O)c3cc(=O)c4ccccc4o3)sc2c1", "target system": "DeltatarO mutant", "category label": 0}
{"compound": "CC1(c2ccc(Cl)cc2)NC(=O)CS1 (stereo unspecified)", "target system": "DeltatarO mutant", "category label": 0}
{"compound": "COc1ccc(-n2nc(C(=O)N3CCN(c4ccccc4OC)CC3)c3c4ccccc4n(C)c3c2=O)cc1Cl", "target system": "DeltatarO mutant", "category label": 0}
{"compound": "CCOc1ccc(-n2nc(CO)c(C(=O)NCc3cccc(OC)c3)n2)cc1", "target system": "DeltatarO mutant", "category label": 1}
{"compound": "CCN(CC)CCCNC(=O)CSc1c2c(nc3cc(Cl)ccc13)CCCC2", "target system": "DeltatarO mutant", "category label": 0}

---

# System: DeltatarO mutant
# assay explanation: S. aureus survival, RN4220 and DeltatarO strains – OD600, teichoic acid synthesis inhibitors, primary screen (AID 463173)
# test parameters: S. aureus RN4220 wild type/DeltatarO growth, OD600, 18 h, hits give low values, screened at 18.75 µg/mL (by protocol)
The whole screen tested about 52,000 compounds, of which about 4,300 (8.3%) were called active. This excerpt belongs to a sample that is enriched for actives.
Each entry below lists one item and its recorded survival value.

{"molecule": "COc1ccc(Cl)cc1NC(=O)Cn1c(=O)n(Cc2nc(C)no2)c(=O)c2ccccc21", "target system": "DeltatarO mutant", "unit symbol": "%", "survival": 83}
{"molecule": "CCNC(=O)Cc1ccc(NC(=O)N2CCCCc3ccccc32)cc1", "target system": "DeltatarO mutant", "unit symbol": "%", "survival": 74}
{"molecule": "COc1cccc(NC(=O)Cn2c(=O)n(Cc3ccccc3)c(=O)c3ccccc32)c1", "target system": "DeltatarO mutant", "unit symbol": "%", "survival": 125}
{"molecule": "COc1ccc(S(=O)(=O)c2nnn(-c3ccc(C)c(Cl)c3)c2C)cc1", "target system": "DeltatarO mutant", "unit symbol": "%", "survival": 99}
{"molecule": "CCS(=O)(=O)N1CC(=O)N(c2ccc(Cl)cc2)C(C)(C(=O)NC2CCCCCC2)C1 (centres undefined)", "target system": "DeltatarO mutant", "unit symbol": "%", "survival": 115}
{"molecule": "Cc1cc(C)nc(NS(=O)(=O)c2ccc(NC(=O)COc3ccc(C(C)(C)C)cc3)cc2)n1", "target system": "DeltatarO mutant", "unit symbol": "%", "survival": 56}
{"molecule": "CCOc1ccc(C(=O)c2cn(CC(=O)Nc3ccc(F)c(F)c3)c3cc4c(cc3c2=O)OCCO4)cc1", "target system": "DeltatarO mutant", "unit symbol": "%", "survival": 130}
{"molecule": "CCN(c1ccccc1)c1nnc(NC(=O)Nc2ccc(Br)c(C)c2)s1", "target system": "DeltatarO mutant", "unit symbol": "%", "survival": 89}
{"molecule": "Cc1cccc(NC(=O)c2ccc3c(O)c(S(=O)(=O)c4ccccc4)c(=O)[nH]c3c2)c1C", "target system": "DeltatarO mutant", "unit symbol": "%", "survival": 88}

---

# System: DeltatarO mutant
# assay explanation: S. aureus survival, RN4220 and DeltatarO strains – OD600, teichoic acid synthesis inhibitors, primary screen (AID 463173)
# test parameters: S. aureus RN4220 wild type/DeltatarO growth, OD600, 18 h, screened at 18.75 µg/mL (by protocol)
Screen size: about 52,000 compounds; about 4,300 (8.3%) were called active. Cut-off read from the data, not from the text of the source: active = survival mostly below about 52% (no sharp cut-off); inactive = mostly above about 56%. The sample holds actives, similar compounds and a random draw of the others, so the mix is not that of the screen.
Classes used: active, inactive

{"compound": "COc1cccc(NC(=O)CSCc2cc(=O)c3ccc(C)c(C)c3[nH]2)c1", "target system": "DeltatarO mutant", "category label": "inactive"}
{"compound": "Cc1cc(C)n(CCC(=O)Nc2ccc(Cl)cc2)n1", "target system": "DeltatarO mutant", "category label": "inactive"}
{"compound": "CCc1ccc(CNC(=O)Cn2nc(C)n3c(cc4cc(C)ccc43)c2=O)cc1", "target system": "DeltatarO mutant", "category label": "inactive"}
{"compound": "CC(C(=O)Nc1ccccc1)n1nnc2sc3c(c2c1=O)CCCC3 (stereo unspecified)", "target system": "DeltatarO mutant", "category label": "inactive"}
{"compound": "COc1ccccc1CNS(=O)(=O)c1cc(Br)cc2c1N(C(C)=O)C(C)C2 (stereo unspecified)", "target system": "DeltatarO mutant", "category label": "inactive"}
{"compound": "COc1ccc(N2CCN(C(=O)CS(=O)(=O)c3cccc4nsnc34)CC2)cc1", "target system": "DeltatarO mutant", "category label": "inactive"}
{"compound": "CCCCCc1ccc(-c2ccc(Br)cc2)nc1", "target system": "DeltatarO mutant", "category label": "active"}
{"compound": "CCOC(=O)c1ccc(NC(=O)CCC(=O)N2Cc3ccccc3Oc3ncccc32)cc1", "target system": "DeltatarO mutant", "category label": "inactive"}
{"compound": "CCc1cc2c(cc3c(=O)n(CC(=O)N4CCC(C)CC4)nc(CC)n32)s1", "target system": "DeltatarO mutant", "category label": "active"}
{"compound": "COc1cc(NS(=O)(=O)c2cc(Br)cc3c2N(C(C)=O)C(C)C3)cc(OC)c1 (stereo unspecified)", "target system": "DeltatarO mutant", "category label": "active"}
{"compound": "Cc1nn(C(C)C(=O)Nc2ccccc2C(F)(F)F)c(=O)c2c1sc1ccccc12 (stereo unspecified)", "target system": "DeltatarO mutant", "category label": "inactive"}
{"compound": "CC(C(=O)Nc1cccc(C#N)c1)n1nc(-c2ccccc2)c2c(c1=O)CCCC2 (stereo unspecified)", "target system": "DeltatarO mutant", "category label": "active"}
{"compound": "CN(CC(=O)Nc1cccc(F)c1)S(=O)(=O)c1ccc2c(c1)n(C)c(=O)c(=O)n2C", "target system": "DeltatarO mutant", "category label": "inactive"}
{"compound": "CC(C(=O)Nc1ccccc1C(F)(F)F)n1nc(-c2ccccc2)c2c(c1=O)CCCC2 (stereo unspecified)", "target system": "DeltatarO mutant", "category label": "active"}
{"compound": "CC(=O)N1c2c(cc(Br)cc2S(=O)(=O)Nc2ccc(OC(F)(F)F)cc2)CC1C (stereo unspecified)", "target system": "DeltatarO mutant", "category label": "inactive"}
{"compound": "COc1ccc(CC(=O)NC2CC(=O)N(c3ccc(C)c(C)c3)C2)cc1OC (stereo unspecified)", "target system": "DeltatarO mutant", "category label": "inactive"}
{"compound": "CCc1cc2c(cc3c(=O)n(CC(=O)N4CCCCC4)nc(CC)n32)s1", "target system": "DeltatarO mutant", "category label": "inactive"}
{"compound": "O=C(COC(=O)c1cc(-c2cccs2)nc2ccccc12)c1ccccc1", "target system": "DeltatarO mutant", "category label": "inactive"}
{"compound": "CC(=O)N1c2c(cc(Br)cc2S(=O)(=O)NCc2ccccc2Cl)CC1C (stereo unspecified)", "target system": "DeltatarO mutant", "category label": "active"}
{"compound": "CCCc1ccc(-c2ccc(C(=O)Oc3ccc(Br)cc3)cc2)nc1", "target system": "DeltatarO mutant", "category label": "inactive"}
{"compound": "CCN(CC)S(=O)(=O)c1cc(-c2ccc(=O)n(C(C)C(=O)Nc3cccc(C#N)c3)n2)ccc1C (stereo unspecified)", "target system": "DeltatarO mutant", "category label": "inactive"}

Values compiled from PubChem BioAssay AID463173.
